Reference source for all entries: paper PMC4800337

# TGT: human CD36 (CD36-overexpressing HeLa cells) (Homo sapiens)
# Sequence (P16671 whole entry): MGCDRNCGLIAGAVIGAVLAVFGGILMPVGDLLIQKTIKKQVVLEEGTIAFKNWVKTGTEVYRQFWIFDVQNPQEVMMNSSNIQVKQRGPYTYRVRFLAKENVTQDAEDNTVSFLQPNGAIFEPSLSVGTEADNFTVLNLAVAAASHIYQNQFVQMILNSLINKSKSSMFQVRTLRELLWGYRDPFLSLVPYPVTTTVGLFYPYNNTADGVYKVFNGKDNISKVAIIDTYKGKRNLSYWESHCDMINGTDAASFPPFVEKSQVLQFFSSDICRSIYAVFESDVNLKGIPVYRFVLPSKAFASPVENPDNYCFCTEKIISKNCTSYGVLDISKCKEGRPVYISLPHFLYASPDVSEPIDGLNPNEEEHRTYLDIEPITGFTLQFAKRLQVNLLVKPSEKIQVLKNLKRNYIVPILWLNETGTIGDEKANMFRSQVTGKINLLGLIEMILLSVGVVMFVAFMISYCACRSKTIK
# PROTOCOL DESCRIPTION: Competition with Alexa-Fluor-488 oxLDL uptake in CD36-overexpressing HeLa cells
# Assay type: cell-based
Where no end group is shown, it is not given here.
ATTRIBUTE MEASURED: IC50

INPUT: Recall the recorded IC50 for DWLKAFYDKVAEKLKEAFPDWAKAAYDKAAEKAKEAA [5A] with human CD36 (CD36-overexpressing HeLa cells) (Homo sapiens) and state it.
OUTPUT: 7.5 µM

###

# TGT: human CD36 (CD36-overexpressing HeLa cells) (Homo sapiens)
# PROTOCOL DESCRIPTION: Competition with Alexa-Fluor-488 oxLDL uptake in CD36-overexpressing HeLa cells
# Assay type: cell-based
Where no end group is shown, it is not given here.
ATTRIBUTE MEASURED: pKi
The read-out pKi is expressed as -log10 of concentration in moles per litre.

INPUT: # input sequence: DWLKAFYDKVAEKLKEAFPDWAKAAYDKAAEKAKEAA [5A] ; wanted: its pKi
OUTPUT: 5.84
